test system: DU-145; test: Cytotoxicity against human DU145 cells by MTT assay; format: functional, cell-based
quantity.measured: pIC50
pIC50 here is simply -log10 of the concentration when that concentration is written in mol/L.

{"compound": "CC(C)=CC[C@@H](OC(=O)CC(C)(O)C(C)C)C1=CC(=O)c2c(O)ccc(O)c2C1=O (mixture of isomers)", "pIC50": 4.77}
{"compound": "CC(C)=CC[C@@H](OC[C@H](C)O)C1=CC(=O)c2c(O)ccc(O)c2C1=O", "pIC50": 4.61}
{"compound": "CCCC(C)(O)CC(=O)O[C@H](CC=C(C)C)C1=CC(=O)c2c(O)ccc(O)c2C1=O (mixture of isomers)", "pIC50": 4.12}
{"compound": "CCC(O)CO[C@H](CC=C(C)C)C1=CC(=O)c2c(O)ccc(O)c2C1=O (mixture of isomers)", "pIC50": 4.79}
{"compound": "CC(=O)OCCO[C@H](CC=C(C)C)C1=CC(=O)c2c(O)ccc(O)c2C1=O", "pIC50": 4.81}
{"compound": "CC(C)=CC[C@@H](OC(=O)C1CCCOC1)C1=CC(=O)c2c(O)ccc(O)c2C1=O (stereo partly drawn)", "pIC50": 4.53}

Recorded pIC50 for CC(C)=CC[C@@H](OC(=O)CC(C)(C)O)C1=CC(=O)c2c(O)ccc(O)c2C1=O [BETA-HYDROXYISOVALERYLSHIKONIN] with DU-145, please?
4.77

Recorded pIC50 for O=P1(N(CCCl)CCCl)NCCCO1 (stereo not drawn) [CYCLOPHOSPHAMIDE ANHYDROUS] with DU-145, please?
4.28

----------
test system: DU-145; experiment: Cytotoxicity against human DU145 cells by MTT assay; type: functional, cell-based
quantity.measured: IC50

Return reported IC50; argument: CCCC(O)CC(=O)O[C@H](CC=C(C)C)C1=CC(=O)c2c(O)ccc(O)c2C1=O (mixture of isomers)
> 100 µM

----------
Attribute: pIC50
system: DU-145; assay: Cytotoxicity against human DU145 cells by MTT assay; assay type: functional, cell-based
pIC50 here is simply -log10 of the concentration when that concentration is written in mol/L.

Recorded pIC50 for CCC(CO[C@H](CC=C(C)C)C1=CC(=O)c2c(O)ccc(O)c2C1=O)OC(C)=O (mixture of isomers) with DU-145, please?
4.60

Recorded pIC50 for CCCCC(C)(O)CC(=O)O[C@H](CC=C(C)C)C1=CC(=O)c2c(O)ccc(O)c2C1=O (mixture of isomers) with DU-145, please?
4.12

Recorded pIC50 for CC[C@@](C)(O)CC(=O)O[C@H](CC=C(C)C)C1=CC(=O)c2c(O)ccc(O)c2C1=O with DU-145, please?
4.90

Recorded pIC50 for CC[C@](C)(O)CC(=O)O[C@H](CC=C(C)C)C1=CC(=O)c2c(O)ccc(O)c2C1=O (racemic) with DU-145, please?
4.69

Recorded pIC50 for CC(C)=CC[C@@H](OC(=O)C1CCCO1)C1=CC(=O)c2c(O)ccc(O)c2C1=O (some centres undefined) with DU-145, please?
4.98
